# Euclidean distance listing for each entry below
System: HEPG2
method-description: Euclidean distance of Cell Painting phenotypic profile (signed KS, 77 features) to DMSO centroid (dimensionless distance); 5 or 10 uM (library dependent); higher = stronger phenotypic change vs DMSO (phenoactivity)
condition-info: 48 h

{"compound": "CCN[C@H]1CN(CCCOC)S(=O)(=O)c2sc(S(N)(=O)=O)cc21 [Brinzolamide]", "Euclidean distance": 0.663}
{"compound": "O=C1c2c(O)cccc2C([C@@H]2O[C@H](CO)[C@@H](O)[C@H](O)[C@H]2O)c2cc(CO)cc(O)c21 (some centres not stated) [Aloin]", "Euclidean distance": 0.479}
{"compound": "Cc1ccc(NC(=O)c2ccc(CN3CCN(C)CC3)cc2)cc1Nc1nc(-c2cccnc2)cs1 [Masitinib (AB1010)]", "Euclidean distance": 2.4}
{"compound": "COc1ccc(-c2nc(N3CCOCC3)c3sc(CN(C)c4ncc(C(=O)NO)cn4)cc3n2)cn1", "Euclidean distance": 4.2}
{"compound": "C[C@@H]1COCCN1c1cc(C2([S@](C)(=N)=O)CC2)nc(-c2cc[nH]c3nccc2-3)n1", "Euclidean distance": 2.29}
{"compound": "c1coc(CNc2ncnc3[nH]cnc23)c1 [Kinetin]", "Euclidean distance": 0.627}
{"compound": "CCc1ccc(/C=C2/SC(=S)NC2=O)cc1", "Euclidean distance": 0.771}
{"compound": "CC(C)N(CCCNC(=O)Nc1ccc(C(C)(C)C)cc1)C[C@H]1O[C@@H](n2ccc3c(N)ncnc32)[C@H](O)[C@@H]1O", "Euclidean distance": 0.5}
{"compound": "NCC(=O)O [Glycine]", "Euclidean distance": 0.776}
{"compound": "Oc1ccc(OC2CCCCO2)cc1 (configuration not stated) [Deoxyarbutin]", "Euclidean distance": 1.02}
{"compound": "COC(=O)C[C@](O)(CCCC(C)(C)O)C(=O)O[C@@H]1C(OC)=C[C@]23CCCN2CCc2cc4c(cc2[C@H]13)OCO4 [Homoharringtonine]", "Euclidean distance": 3.18}
{"compound": "O=C(NC[C@H](O)CO)c1ccncc1Nc1ccc(I)cc1F", "Euclidean distance": 1.53}
